Kindly state T/C for each of the entries shown.
Tested on: L1210 leukemia ip in BDF1 mice, survival T/C
Assay: NCI In Vivo Anticancer Drug Screen. Data for tumor model L1210 Leukemia (intraperitoneal) in B6D2F1 (BDF1) mice
Settings: endpoint: mean survival time; dose: 200.0 mg/kg/injection; schedule: Q01DX001 (ip); vehicle: carboxymethylcellulose (CMC); higher = longer survival
Inconclusive results and toxic doses are left out.

*Q* Param readout= T/C; system= L1210 leukemia ip in BDF1 mice, survival T/C; entry= COCC(C)CNC(=S)Nc1ccccc1 (stereo unspecified) ; returns value.
*A* 103 % of control

*Q* Item: Clc1ccc(/C=N/N2CCN(/N=C/c3ccc(Cl)cc3)CC2)cc1 Test system: L1210 leukemia ip in BDF1 mice, survival T/C Read-out: T/C Value: ?
*A* 96 % of control

*Q* Missing value: T/C, L1210 leukemia ip in BDF1 mice, survival T/C, entry O=C1NC(=O)C2C3CCC(C12)C3C(c1ccccc1)c1ccccc1 (stereo unspecified) . Fill in?
*A* 95 % of control

*Q* // fetch L1210 leukemia ip in BDF1 mice, survival T/C T/C for O=NN(C(=O)NC1CCCCC1)C1CCCCC1
*A* 106 % of control

*Q* Field: T/C (L1210 leukemia ip in BDF1 mice, survival T/C). Entry: S=C(S)NC1c2ccccc2-c2ccccc21 (tested in a mixture with another compound)
*A* 90 % of control

*Q* # get_value(readout= T/C, system= L1210 leukemia ip in BDF1 mice, survival T/C) for CCOC(=O)c1cccc2cccc(C(=O)OCC)c12
*A* 101 % of control

*Q* Reported T/C for L1210 leukemia ip in BDF1 mice, survival T/C, given COc1cc(N=Cc2ccc([N+](=O)[O-])cc2)c2ncccc2c1 ?
*A* 94 % of control

*Q* Give recorded T/C with L1210 leukemia ip in BDF1 mice, survival T/C for the following compound: C=CCC(O)CCCCC (stereo unspecified)
*A* 97 % of control

*Q* What reported T/C corresponds to CCOC(=O)Nc1cc(NC(c2ccccc2)c2ccccc2)c([N+](=O)[O-])c(NC(=O)OCC)n1 on L1210 leukemia ip in BDF1 mice, survival T/C?
*A* 92 % of control

*Q* Look up T/C with L1210 leukemia ip in BDF1 mice, survival T/C for this compound: O=C(c1ccccc1)c1ccc(Br)cc1O
*A* 98 % of control

*Q* Return T/C measured with L1210 leukemia ip in BDF1 mice, survival T/C given this compound: Nc1nc(-c2ccccc2)c(CCCOc2ccc(NC(=O)CBr)cc2)c(=O)[nH]1
*A* 86 % of control

*Q* Please state recorded T/C (tested on L1210 leukemia ip in BDF1 mice, survival T/C) of Cc1ccc(NC(=O)NCCCCl)cc1
*A* 98 % of control

*Q* Request body: readout T/C, system L1210 leukemia ip in BDF1 mice, survival T/C, query Cc1ccc([N+](=O)[O-])cc1NC(=O)c1ccccc1 . Return the value.
*A* 96 % of control

*Q* Please state recorded T/C (tested on L1210 leukemia ip in BDF1 mice, survival T/C) of NS(N)(=O)=O
*A* 98 % of control

*Q* API: value(readout= T/C, system= L1210 leukemia ip in BDF1 mice, survival T/C, query= NNc1ccccc1C(=O)O )
*A* 105 % of control

*Q* Quick check: T/C on L1210 leukemia ip in BDF1 mice, survival T/C, item CCOC(=O)CC(CC(=O)OCC)NC(=O)c1ccc(N(C)C(=O)OCc2ccccc2)cc1 ?
*A* 100 % of control

*Q* Provide the documented T/C with L1210 leukemia ip in BDF1 mice, survival T/C as the system for COc1cc(OC)cc(C(=O)NCCCl)c1
*A* 107 % of control

*Q* Request: T/C, test system L1210 leukemia ip in BDF1 mice, survival T/C, entry O=C1c2ccccc2C(=O)C2C3C=CC(CC3)C12 (stereo unspecified)
*A* 97 % of control

*Q* Test system L1210 leukemia ip in BDF1 mice, survival T/C; read-out T/C; what value for COc1cc2c(c(O)c1OCC=C(C)C)c(=O)c1ccccc1n2C ?
*A* 95 % of control

*Q* # returns recorded T/C (system: L1210 leukemia ip in BDF1 mice, survival T/C) for c1ccc(-c2ccccc2SSc2ccccc2-c2ccccc2)cc1
*A* 105 % of control

*Q* Could you share what T/C was measured for CC(C(=O)O)N(C)C(=O)c1cnc2ccccc2n1 (stereo unspecified) , tested on L1210 leukemia ip in BDF1 mice, survival T/C?
*A* 96 % of control

*Q* Quick check: T/C on L1210 leukemia ip in BDF1 mice, survival T/C, item Nc1nc(N)c(N=Nc2c(Br)cc(S(N)(=O)=O)cc2Br)c(N)n1 ?
*A* 94 % of control

*Q* Could you share what T/C was measured for Nc1sc(C(=O)O)cc1[N+](=O)[O-] , tested on L1210 leukemia ip in BDF1 mice, survival T/C?
*A* 92 % of control

*Q* L1210 leukemia ip in BDF1 mice, survival T/C / T/C / NC1=NC(=O)C(c2ccccc2)(c2ccccc2)S1 : value?
*A* 98 % of control

*Q* Form: Entry = COc1ccc(-c2ccc(OC)cc2OC)c(OC)c1 | System = L1210 leukemia ip in BDF1 mice, survival T/C | T/C = ____
*A* 107 % of control

*Q* # get_value(readout= T/C, system= L1210 leukemia ip in BDF1 mice, survival T/C) for Cc1cc(/C=N/Nc2ccc3cccc(O)c3n2)c(O)c2ncccc12
*A* 93 % of control

Ref: PubChem BioAssay AID248
